System: SK-MEL-28 melanoma
Assay Summary: NCI-60 one-dose screen, 48 h (100 = growth as untreated, 0 = no growth, -100 = all killed)
Test Parameters: 10 µM unless noted
Compounds without any hit were thinned out: in the full panel of roughly 83,000, 20% have a hit.

| Compound | Units Symbol | growth |
| --- | --- | --- |
| OCC12CCCC(CO)(COC1)C2O (stereo not given) | % | 107 |
| O=C(NC(Cc1cn(Cc2ccccc2)cn1)C(=O)O)OCC1c2ccccc2-c2ccccc21 (stereo not given) | % | 104 |
| O=C(CI)Nc1ccc(O)c2ccccc12 | % | 41.5 |
| O=C1C(Cl)=C(Nc2ccc(S(=O)(=O)c3ccc(NC4=C(Cl)C(=O)c5ccccc5C4=O)cc3)cc2)C(=O)c2ccccc21 | % | 14.2 |
| CC(=O)Nc1cc(F)cc(C(F)(F)F)c1Cl | % | 101 |
| C=C(C)[C@@H]1CC[C@]2(CN)CC[C@]3(C)[C@H](CC[C@@H]4[C@@]5(C)CCC(=O)NC(C)(C)[C@@H]5CC[C@]43C)[C@@H]12 | % | 89.2 |
| C[C@@H](C(=O)O)c1ccc2c3cc(Cl)ccc3n(Cc3cc(=O)oc4ccc(Cl)cc34)c2c1 | % | 99.9 |
| N#CC1=C(N)Oc2c(sc3c(F)cccc23)C1c1ccc(Cl)cc1 (stereo not given) | % | 49.6 |
| Cc1ccc2oc(=O)cc(-c3sc(N4CCCCC4)nc3-c3ccccc3)c2c1 | % | 103 |
| COc1ccc(/C=C(\C#N)c2cc3ccccc3n2S(C)(=O)=O)cc1 | % | 82.5 |

====

Recorded growth values for a group of molecules are listed next.
System: PC-3 prostate
Assay Summary: NCI-60 one-dose screen, 48 h (100 = growth as untreated, 0 = no growth, -100 = all killed)
Test Parameters: 10 µM unless noted
This is part of a sample that, as a whole, favours compounds with a hit. Of some 83,000 tested, about 20% had one in any assay.

| Molecule | Study Target | Units Symbol | growth |
| --- | --- | --- | --- |
| COc1cc(-c2cc3ncccc3c3nc(N)c4cccnc4c23)cc(OC)c1OC | PC-3 prostate | % | 22 |
| CC1c2ccccc2N(S(=O)(=O)c2ccccc2)C1C (configuration not stated) | PC-3 prostate | % | 81.4 |
| CCN(CC)c1ccc(/C=C/c2cc(C)c3ccccc3n2)cc1 | PC-3 prostate | % | 65 |
| O=C(CCCCCn1c2ccccc2c2c3c(c4c5ccccc5[nH]c4c21)C(=O)N(O)C3=O)N1CCOCC1 | PC-3 prostate | % | 26.5 |
| CN1CCN(c2ccc3nc(-c4[nH]ncc4Nc4ncnc5c4OCCCN5)[nH]c3c2)CC1 | PC-3 prostate | % | -58.5 |
| CCCCC(=O)OC1CCCCC1C (configuration not stated) | PC-3 prostate | % | 68.1 |
| C=C(C)[C@@H]1CC[C@]2(c3nnc(-c4ccncc4)o3)CC[C@]3(C)[C@H](CC[C@@H]4[C@@]5(C)CCC(=O)NC(C)(C)[C@@H]5CC[C@]43C)[C@@H]12 | PC-3 prostate | % | 69.5 |
| Cc1cc(Cl)c2c(N(C)C)cccc2n1 | PC-3 prostate | % | 119 |
| C[N+](C)(CCCCCC[N+](C)(C)C1c2ccccc2-c2ccccc21)C1c2ccccc2-c2ccccc21 | PC-3 prostate | % | 98.2 |
| COc1ccc2c(c1)c(-c1nc(-c3cn(C)c4ncccc34)cs1)cn2CCCN1CCCCC1 | PC-3 prostate | % | 51.1 |
| O=C1c2cc3c(cc2-c2c1c1ccc(F)cc1c(=O)n2CCCN1CCOCC1)OCO3 | PC-3 prostate | % | 60 |
| COc1cccc(-c2nn(-c3ccccc3)cc2-c2ccnc(NCCCO)c2)c1 | PC-3 prostate | % | 46.4 |
| Cn1cc(-c2nc(-c3c[nH]c4ncccc34)cs2)c2ccccc21 | PC-3 prostate | % | 80.6 |
| Cc1ccc(Nc2c(C(N)=O)cnc3ccc(S(=O)(=O)Nc4cc(C)on4)cc23)cc1 | PC-3 prostate | % | 86.5 |
| Cc1nn2c(-c3nc4cc(Cl)c(Cl)cc4[nH]3)c(-c3ccc(F)cc3)nc2s1 | PC-3 prostate | % | 24.6 |
| Cn1cc(-c2csc(-c3cn(CCCN4CCCCC4)c4ccc(F)cc34)n2)c2cccnc21 | PC-3 prostate | % | 71.5 |
| COc1cccc(-c2nn(-c3ccccc3)cc2-c2ccnc(NCCCNS(=O)(=O)c3ccc(C(F)(F)F)cc3)c2)c1 | PC-3 prostate | % | 12.9 |
| C/C(Cc1ccc(Cl)cc1)=C(/c1ccc(Cl)cc1)c1ccc(OCCN2CCCC2)cc1 | PC-3 prostate | % | 65.4 |
| CCSc1sc(-c2ccc(C)cc2)nc1[P+](c1ccccc1)(c1ccccc1)c1ccccc1 | PC-3 prostate | % | -11.5 |
| N#CC1=C(N)Oc2ccc3ccccc3c2C1c1ccccc1Cl (configuration not stated) | PC-3 prostate | % | 46.1 |
| O=C1c2cccc3cccc(c23)C(=O)N1CC#Cc1ccc2c3c(cccc13)C(=O)N(CCN1CCNCC1)C2=O | PC-3 prostate | % | 85.5 |
| O=C1c2cc3c(cc2-c2c1c1ccc(Cl)cc1c(=O)n2C[C@H](O)[C@@H](O)[C@H](O)CO)OCO3 | PC-3 prostate | % | 12.7 |
| O=C(NO)c1ccc(Cn2c(=O)n(CCc3ccc(O)cc3)c(=O)c3ccccc32)cc1 | PC-3 prostate | % | 38.7 |
| CC1(C)C(=O)/C(=C\c2ccco2)C[C@]2(C)[C@H]3CC[C@@H]4[C@@H](C(=O)/C=C/c5ccco5)CC[C@@]4(C)[C@]3(C)CC[C@@H]12 | PC-3 prostate | % | 80.4 |
| Cc1cc(N(CCCNc2ccnc3cc(Cl)ccc23)Cc2ccco2)nc(N2CCOCC2)n1 | PC-3 prostate | % | 62.2 |
| CC(c1ccccc1)N1C(=O)C(C2SC(=S)N(C(C)c3ccccc3)C2=O)SC1=S (configuration not stated) | PC-3 prostate | % | 84.7 |
| COC(=O)[C@]12CC[C@@H](C)[C@H](C)[C@@H]1C1=CC[C@@H]3[C@@](C)(CC#N)C4=C(C[C@@]3(C)[C@]1(C)CC2)OC[C@]4(C)C=O | PC-3 prostate | % | 9.95 |
| COc1ccc(C2c3ccccc3NC(=O)N2C2CCN(C)CC2)c(OC)c1 (configuration not stated) | PC-3 prostate | % | 94.4 |
| CCN(CC)C(=O)CCCCCn1c2ccccc2c2c3c(c4c5ccccc5[nH]c4c21)C(=O)N(O)C3=O | PC-3 prostate | % | 30 |
| Nc1c(C(=O)Nc2cccc(Br)c2)sc2nc3c(cc12)C(=O)CCC3 | PC-3 prostate | % | 14.3 |
| Cc1cc(Nc2ccc(F)cc2)nc(N2CCN(c3ccnc4cc(Cl)ccc34)CC2)n1 | PC-3 prostate | % | 11.1 |
| CCCCC[C@H]1C/C=C2/C(=O)C(Cl)=C[C@@H]2C/C=C\CCCC(=O)O1 | PC-3 prostate | % | -46.6 |
| N=c1ccc2nc3c(cc(N)c4ccccc43)oc-2c1 | PC-3 prostate | % | -39.3 |
| CN1CCN(c2nc(-c3csc(-c4cccs4)n3)cc3ccccc23)CC1 | PC-3 prostate | % | 39.8 |
| COC(=O)[C@]12CC[C@@H](C(/C=C/c3cccnc3)=N/O)[C@@H]1[C@H]1CC[C@@H]3[C@@]4(C)CC(=C/c5cccnc5)/C(=N/O)C(C)(C)[C@@H]4CC[C@@]3(C)[C@]1(C)CC2 | PC-3 prostate | % | 20.8 |
| Fc1ccc(NCc2nnc(-c3ccc(Cl)cc3)o2)cc1 | PC-3 prostate | % | 54.3 |
| O=C(c1ccccc1)C(CN1CCOCC1)c1ccccc1 (configuration not stated) | PC-3 prostate | % | 48.7 |

====

Overview of recorded growth for various compounds
Test system: TK-10 renal
Assay Summary: NCI-60 one-dose screen, 48 h (100 = growth as untreated, 0 = no growth, -100 = all killed)
Test Parameters: 10 µM unless noted
About 83,000 compounds went through this panel and 20% of them were active in at least one assay; those are over-represented in the sample as a whole.

| Compound | Study Target | growth, % |
| --- | --- | --- |
| CC(=O)c1c(C)[nH]c(-c2nc3ccc(N4CCN(C)CC4)cc3[nH]2)c1-c1ccc(OCC2CCOCC2)cc1 | TK-10 renal | -5.8 |
| NC(Cc1ccc(O)cc1)C(=O)N/N=C/c1ccccc1O (stereo not given) | TK-10 renal | 98 |
| Fc1ccc2nc(-c3cc(-c4ccc5c(c4)OCO5)n[nH]3)[nH]c2c1 | TK-10 renal | 75.9 |
| Cc1[c-]onc1C.Cc1[c-]onc1C.[Ag].[Ag].[NH-]S(=O)(=O)c1ccc(N=Nc2cc(N=Nc3ccc(S([NH-])(=O)=O)cc3)c3c(NC(=O)C(Cl)Cl)cccc3c2OC(=O)C(Cl)Cl)cc1 | TK-10 renal | 133 |
| Cn1c2c(Cl)c(Cl)ccc2c2c(C#N)c[nH]c(=O)c21 | TK-10 renal | 119 |
